procedure_summary: small-molecule microarray binders of probe aLefty2, primary screen, biochemical, biotinylated probe, 635/667 nm fluorescence (AID 1094);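 also: score merges spot fluorescence near 667 nm with spot signal-to-noise ratio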
measurement_context: higher = more signal
Catalogue of composite z-score values

[
  {
    "molecule": "CC(C)C(=C=CC[C@@H](O)c1ccc(OCCO)cc1)C[C@@H](O)COCc1ccccc1",
    "composite z-score": -0.192
  },
  {
    "molecule": "C=C(/C(=C/C[C@H](OC(C)=O)c1ccccc1OCCO)c1cnc2ccccc2c1)C(C)C",
    "composite z-score": -0.0251
  },
  {
    "molecule": "C=C(CCCC)/C(=C/C[C@@H](OC(=O)c1ccncc1)c1ccc(OCCO)cc1)c1cc(C(=O)OC)ccc1OC",
    "composite z-score": -0.166
  },
  {
    "molecule": "COCCOC(=O)N1C(=O)[C@@]2(c3cc(C#CCC(C(=O)OC)C(=O)OC)ccc31)[C@H](C(=O)N1CCN(c3ncccn3)CC1)[C@H]1C(=O)O[C@H](c3ccccc3)[C@H](c3ccccc3)N1[C@@H]2c1ccccc1OCCO",
    "composite z-score": -0.0726
  },
  {
    "molecule": "CCCCCCc1nc(-c2cc(C)c(OC)c(C)c2)cc2c1[Si](C(C)C)(C(C)C)OC2",
    "composite z-score": -0.0575
  },
  {
    "molecule": "Oc1ccc2cc[n+](Cc3sc4ccccc4c3Cl)cc2c1",
    "composite z-score": 0.217
  },
  {
    "molecule": "CC(C)[Si]1(C(C)C)O[C@@H](c2ccccc2)c2cc(-c3ccc(-c4ccc(Cl)c(Cl)c4)o3)nc(-c3ccccc3)c21",
    "composite z-score": -0.0809
  },
  {
    "molecule": "Cc1ccc(N2C(=O)c3ccccc3[C@@H](C(=O)NC3CC3)[C@@H]2c2ccc(CO)cc2)nc1",
    "composite z-score": 0.297
  },
  {
    "molecule": "CC1(C)C2C=C(C(O)C3C=CC4C(=O)NC(=O)C4N3Nc3ccc(Cl)cc3Cl)C[C@@H]1C2 (stereo not given in full)",
    "composite z-score": 0.374
  },
  {
    "molecule": "CCCC[C@H]1OB(O)C[C@H]2C1=C(COC)Cn1c(=O)n(-c3ccccc3)c(=O)n12",
    "composite z-score": -0.208
  }
]

* * *

tested_target: Torsin-1A-interacting protein 2 (Homo sapiens)
procedure_summary: LULL1 binders on small-molecule microarray, primary screen, cell lysate, human LULL1 lysate, 635/667 nm fluorescence (AID 1092);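 also: probe is lysate of COS7 cells overexpressing human LULL1; score merges per-feature 667 nm fluorescence with signal-to-noise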
measurement_context: hLULL1 lysate binding, 635 nm fluorescence, higher = more signal
endpoint_name: composite z-score

[
  {
    "compound": "CCOC(=O)C1=C[C@@H](C(C)(C)C)N(S(=O)(=O)c2ccc(C)cc2)[C@H]1c1ccc(F)cc1",
    "tested_target": "Torsin-1A-interacting protein 2 (Homo sapiens)",
    "endpoint_name": "composite z-score",
    "measurement": 3.07
  },
  {
    "compound": "CCN(CC)c1ccc(N2CC=CC34O[C@@H]5C=CCCOC(=O)C5[C@H]3C(=O)N(CCCCCCO)[C@@H]4C2=O)cc1 (stereo partly specified)",
    "tested_target": "Torsin-1A-interacting protein 2 (Homo sapiens)",
    "endpoint_name": "composite z-score",
    "measurement": 2.94
  },
  {
    "compound": "CC(C)NC(=O)[C@@]1(C)c2ccccc2C(=O)N(Cc2cc(C(F)(F)F)cc(C(F)(F)F)c2)[C@H]1c1ccc(CO)cc1",
    "tested_target": "Torsin-1A-interacting protein 2 (Homo sapiens)",
    "endpoint_name": "composite z-score",
    "measurement": 3
  },
  {
    "compound": "O=C1C2C=CC(C(O)Cc3ccccc3)N(n3cnnc3)C2C(=O)N1Cc1ccccc1 (stereo unspecified)",
    "tested_target": "Torsin-1A-interacting protein 2 (Homo sapiens)",
    "endpoint_name": "composite z-score",
    "measurement": 2.93
  },
  {
    "compound": "COCCCNC(=O)[C@]1(CCC(=O)OC(C)(C)C)N=C(c2ccc(OCCCO)cc2)O[C@@H]1c1ccccc1CN=[N+]=[N-]",
    "tested_target": "Torsin-1A-interacting protein 2 (Homo sapiens)",
    "endpoint_name": "composite z-score",
    "measurement": 2.92
  },
  {
    "compound": "COC(=O)[C@@]1(CCS(=O)(=O)c2ccccc2)N=C(c2ccc(OCCCO)cc2)O[C@H]1c1ccccc1CN=[N+]=[N-]",
    "tested_target": "Torsin-1A-interacting protein 2 (Homo sapiens)",
    "endpoint_name": "composite z-score",
    "measurement": 3.01
  }
]

* * *

procedure_summary: small-molecule binders of probe aNOTCH3, primary screen, biochemical, small-molecule microarray, 635/667 nm fluorescence (AID 1120);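 also: probe is a biotin-tagged antibody raised against NOTCH3 rather than NOTCH3 protein; score merges spot fluorescence near 667 nm with spot signal to noise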
measurement_context: higher = more signal

[
  {
    "smiles_notation": "Cc1ccc([C@@H]2C[C@@H](Sc3ccccc3)[C@H](C(=O)O)CN2S(=O)(=O)c2ccc(C)cc2)cc1",
    "composite z-score": 0.171
  },
  {
    "smiles_notation": "CCCC[C@@H]1C[C@H]1[C@@H](NC(=O)c1ccco1)c1ccccc1C(F)(F)F",
    "composite z-score": 1.91
  },
  {
    "smiles_notation": "O=C1O[C@H](c2ccccc2)[C@H](c2ccccc2)N2[C@H]1[C@@H](C(=O)N1CCCCCCC1)[C@]1(C(=O)Nc3ccc(C#CC4=CCCCC4)cc31)[C@H]2c1ccc(OCCO)cc1",
    "composite z-score": 2.11
  },
  {
    "smiles_notation": "CCCCCCc1nc(-c2cc(C)c(OC)c(C)c2)cc2c1[Si](C(C)C)(C(C)C)OC2",
    "composite z-score": -0.0111
  }
]

* * *

System: Wnt5a (protein binding on small-molecule microarray)
procedure_summary: Wnt5a binders on small-molecule microarray, primary screen, biophysical, 635/667 nm fluorescence (AID 1142);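 also: fluorescence read at 667 nm with signal to noise per printed feature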
measurement_context: 635 nm fluorescence, higher = more signal
I would appreciate it if you labelled entries Met when composite z-score is 0.09 or higher, otherwise Not met.

[
  {
    "molecule": "O=C1C2C=CC(C(O)Cc3ccccc3)N(n3cnnc3)C2C(=O)N1Cc1ccccc1 (stereo not given)",
    "tested_target": "Wnt5a (protein binding on small-molecule microarray)",
    "qualitative_label": "Not met"
  },
  {
    "molecule": "O=C1NC(=O)C2C1C=CC(C(O)c1cccs1)N2Nc1ccc(Cl)cc1Cl (stereo not given)",
    "tested_target": "Wnt5a (protein binding on small-molecule microarray)",
    "qualitative_label": "Not met"
  },
  {
    "molecule": "Cc1ccccc1C(O)C1C=CC2C(=O)N(c3ccccc3)C(=O)C2N1Nc1ccc(C(C)C)cc1 (stereo not given)",
    "tested_target": "Wnt5a (protein binding on small-molecule microarray)",
    "qualitative_label": "Met"
  },
  {
    "molecule": "COCCOC(=O)N1C(=O)[C@@]2(c3cc(C#CC4(O)CCCCCC4)ccc31)[C@H](c1ccccc1OCCO)N1[C@H](c3ccccc3)[C@H](c3ccccc3)OC(=O)[C@H]1[C@@H]2C(=O)N1CCN(c2ncccn2)CC1",
    "tested_target": "Wnt5a (protein binding on small-molecule microarray)",
    "qualitative_label": "Met"
  },
  {
    "molecule": "COc1ccc(C(O)C2C=CC3C(=O)N(Cc4ccccc4)C(=O)C3N2n2cnnc2)cc1OCc1ccccc1 (stereo not given)",
    "tested_target": "Wnt5a (protein binding on small-molecule microarray)",
    "qualitative_label": "Not met"
  }
]

* * *

procedure_summary: small-molecule binders of probe aLefty1, primary screen, biochemical, small-molecule microarray, 635/667 nm fluorescence (AID 1153);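 also: score merges spot fluorescence with signal-to-noise ratio from the scanned slide images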
measurement_context: higher = more signal
Parameter composite z-score: see the listing below.

[
  {
    "compound": "COCC(=C=CC[C@@H](O)c1cccc(OCCO)c1)C[C@@H](O)c1ccccn1",
    "composite z-score": 0.0903
  },
  {
    "compound": "Cc1ccc(S[C@]2(C(=O)NCCCN(C)C)CC(=O)N(Cc3cc(C(F)(F)F)cc(C(F)(F)F)c3)[C@@H]2c2ccc(CO)cc2)cc1",
    "composite z-score": -0.506
  },
  {
    "compound": "NC(=O)NCC#Cc1ccc2c(c1)[C@]1(C(=O)N2)[C@H](C(=O)Nc2nc3ccccc3s2)[C@H]2C(=O)O[C@H](c3ccccc3)[C@H](c3ccccc3)N2[C@@H]1c1ccccc1OCCO",
    "composite z-score": 1.33
  },
  {
    "compound": "COCCOC(=O)N1C(=O)[C@@]2(c3cc(C#Cc4ccc(OC)cc4)ccc31)[C@H](c1ccc(OCCO)cc1)N1[C@H](c3ccccc3)[C@H](c3ccccc3)OC(=O)[C@H]1[C@@H]2C(=O)N1CCN(c2ncccn2)CC1",
    "composite z-score": 0.042
  },
  {
    "compound": "CCS[C@H]1[C@@H](C(=O)O)[C@H](c2ccc(C)cc2)N(S(=O)(=O)c2ccc(C)cc2)[C@@H]1CC",
    "composite z-score": 0.157
  },
  {
    "compound": "Cc1ccc(S[C@]2(C(=O)NCCCN(C)C)CC(=O)N(Cc3cc(C(F)(F)F)cc(C(F)(F)F)c3)[C@@H]2c2ccc(CO)cc2I)cc1",
    "composite z-score": 1.37
  },
  {
    "compound": "C=CCC(OC(C)=O)[C@@H]1[C@@H](N(Cc2cccc3ccccc23)C(=O)c2ccc(-c3ccccc3)cc2)c2cc(OCCCO)ccc2N1C(=O)c1ccc2ccccc2c1 (some centres not stated)",
    "composite z-score": 0.0153
  },
  {
    "compound": "COc1ccc(C#Cc2ccc3c(c2)[C@]2(C(=O)N3)[C@H](c3ccccc3OCCO)N3[C@H](c4ccccc4)[C@H](c4ccccc4)OC(=O)[C@H]3[C@@H]2C(=O)Nc2nc3ccccc3s2)cc1",
    "composite z-score": 1.78
  },
  {
    "compound": "CCOC(=O)C[C@H]1[C@H](OC(=O)c2ccc(C(=O)c3ccccc3)cc2)[C@@H](NC(=O)c2ccccc2)c2cc(OCCCO)ccc2N1C(=O)Cc1ccc(OC)cc1",
    "composite z-score": -0.185
  },
  {
    "compound": "CC(C)NC(=O)[C@@H]1c2ccccc2C(=O)N(C2Cc3ccccc3C2)[C@H]1c1ccc(CO)cc1",
    "composite z-score": 0.11
  },
  {
    "compound": "COC(=O)C(CC#Cc1ccc2c(c1)[C@]1(C(=O)N2)[C@H](C(=O)Nc2nc3ccccc3s2)[C@H]2C(=O)O[C@H](c3ccccc3)[C@H](c3ccccc3)N2[C@@H]1c1ccc(O)cc1)C(=O)OC",
    "composite z-score": 0.0809
  },
  {
    "compound": "O=C1c2ccccc2[C@](Cc2ccccc2I)(C(=O)NCCN2CCOCC2)[C@H](c2ccc(CO)cc2)N1Cc1ccccc1Cl",
    "composite z-score": 0.559
  }
]
